// provenance: the RNAGym collection of RNA variant scans (doi:10.1021/acssynbio.7b00057)

Reported aptazyme ON/OFF ratio values for the following variants.
B1: Pistol ribozyme (parent)
chain: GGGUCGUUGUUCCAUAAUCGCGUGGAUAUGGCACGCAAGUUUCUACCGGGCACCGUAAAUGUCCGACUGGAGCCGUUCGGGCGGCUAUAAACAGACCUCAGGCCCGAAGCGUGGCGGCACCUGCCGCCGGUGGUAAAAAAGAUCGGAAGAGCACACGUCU

- Variants of: B1
- MEASUREMENT PROTOCOL: aptazyme ON/OFF ratio, guanine; higher = stronger switching; co-transcriptional cleavage with and without guanine

Sample answers from the record:
>  <VARIANT STRING>
U8A G9U U10A U11A C12A C13G

>  <aptazyme ON/OFF ratio>
1.23

$$$$
>  <VARIANT STRING>
U8C G9C C12U

>  <aptazyme ON/OFF ratio>
1.08

$$$$
>  <VARIANT STRING>
U7C U8C G9U U10C U11C C13G

>  <aptazyme ON/OFF ratio>
1.1

$$$$

# input aptazyme ON/OFF ratio for U7C U8C G9A U10G C13A ?
# output 1.27

# input aptazyme ON/OFF ratio for U8C G9U U10C U11A C12U ?
# output 1.17

# input aptazyme ON/OFF ratio for G9U U11A C12G ?
# output 1.55

# input aptazyme ON/OFF ratio for U7C U8C G9C U10C U11G C12A ?
# output 1.18

# input aptazyme ON/OFF ratio for U7A U8C G9A U10C C12U ?
# output 1.35
